tgt: recombinant human NK3 receptor (Homo sapiens)
Construct: expressed in transfected cells; host or cells: HEK293 cells, transient expression; membranes
Sequence (P29371 1-465): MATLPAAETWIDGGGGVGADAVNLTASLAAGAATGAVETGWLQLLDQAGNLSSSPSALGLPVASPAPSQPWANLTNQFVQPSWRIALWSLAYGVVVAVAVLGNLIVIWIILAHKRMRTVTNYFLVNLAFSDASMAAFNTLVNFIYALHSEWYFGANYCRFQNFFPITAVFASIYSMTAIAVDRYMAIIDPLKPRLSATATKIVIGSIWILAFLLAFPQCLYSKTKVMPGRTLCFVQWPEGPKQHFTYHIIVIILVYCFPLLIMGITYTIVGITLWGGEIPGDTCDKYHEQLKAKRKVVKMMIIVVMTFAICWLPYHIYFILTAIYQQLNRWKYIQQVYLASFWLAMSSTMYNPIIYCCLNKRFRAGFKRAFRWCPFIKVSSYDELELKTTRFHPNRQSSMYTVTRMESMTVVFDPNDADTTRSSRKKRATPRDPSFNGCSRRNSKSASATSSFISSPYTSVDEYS
assay procedure: [3H]SR142801 competition binding assay
condition info: membranes from HEK293 cells transiently expressing recombinant human NK3 receptor; [3H]SR142801 radioligand; Ki by Cheng-Prussoff
For each record, write down the corresponding log10 Ki.
The figures below represent log10 of Ki, where Ki is stated in nM.

Previously resolved entries follow.
compound	endpoint value
C[C@@H](Oc1ccc(Cl)cc1)[C@@H]1CN(C(=O)CN2CCC(CO)CC2)C[C@H]1c1ccc(Cl)c(Cl)c1 (racemic) [Example 67]	1.72
C[C@@H](Oc1ncc(Cl)cn1)[C@@H]1CN(C(=O)N2CCN(S(C)(=O)=O)CC2)C[C@H]1c1ccc(Cl)c(Cl)c1 (racemic) [Example 53]	0.83
C[C@@H]1CN(C(=O)N2C[C@@H]([C@@H](C)Oc3ccc(Cl)cn3)[C@H](c3ccc(Cl)c(Cl)c3)C2)CCN1S(C)(=O)=O (mixture of isomers) [Example 54]	0.30

Batch lookup, log10 Ki per entry.
1. CC(=O)NC1CCN(CC(=O)N2C[C@@H]([C@@H](C)Oc3ccc(C(F)(F)F)cc3)[C@H](c3ccc(Cl)c(Cl)c3)C2)CC1 (racemic) [Example 25]
2. C[C@@H](Oc1ccc(F)cn1)[C@@H]1CN(C(=O)N2CCN(S(C)(=O)=O)CC2)C[C@H]1c1ccc(Cl)c(Cl)c1 (racemic) [Example 59]
3. C[C@@H](Oc1ccc(F)cc1)[C@@H]1CN(C(=O)N2CCN(S(C)(=O)=O)CC2)C[C@H]1c1ccc(Cl)c(Cl)c1 (racemic) [Example 34]
4. C[C@@H](Oc1ccc(C(F)(F)F)cc1)[C@@H]1CN(C(=O)N2CCN(CCN(C)C)CC2)C[C@H]1c1ccc(Cl)c(Cl)c1 (racemic) [Example 52]
5. C[C@@H](Oc1ccc(C(F)(F)F)cc1)[C@@H]1CN(C(=O)N2CCN(S(C)(=O)=O)CC2)C[C@H]1c1ccc(Cl)c(Cl)c1 (racemic) [Example 16]

Result:
1: 1.78; 2: 1.10; 3: 1.60; 4: 1.63; 5: 1.46

Batch lookup, log10 Ki per entry.
1. CC(=O)N1CCN(CC(=O)N2C[C@@H]([C@@H](C)Oc3ccc(C(F)(F)F)cc3)[C@H](c3ccc(Cl)c(Cl)c3)C2)CC1 (racemic) [Example 24]
2. C[C@@H](Oc1ccc(F)c(Cl)c1)[C@@H]1CN(C(=O)N2CCN(S(C)(=O)=O)CC2)C[C@H]1c1ccc(Cl)c(Cl)c1 (racemic) [Example 41]
3. C[C@@H](Oc1ccc(Cl)c(Cl)c1)[C@@H]1CN(C(=O)N2CCN(S(C)(=O)=O)CC2)C[C@H]1c1ccc(Cl)c(Cl)c1 (racemic) [Example 30]
4. C[C@@H](Oc1ccc(Cl)cn1)[C@@H]1CN(C(=O)N2CC3(COC3)C2)C[C@H]1c1ccc(Cl)c(Cl)c1 (racemic) [Example 61]
5. Cc1ccc(O[C@H](C)[C@@H]2CN(C(=O)N3CCN(S(C)(=O)=O)CC3)C[C@H]2c2ccc(Cl)c(Cl)c2)cc1 (racemic) [Example 31]
6. C[C@@H]1CN(C(=O)N2C[C@@H]([C@@H](C)Oc3ccc(C(F)(F)F)cc3)[C@H](c3ccc(Cl)c(Cl)c3)C2)CCN1S(C)(=O)=O (mixture of isomers) [Example 27]
7. C[C@@H](Oc1ncccn1)[C@@H]1CN(C(=O)N2CCN(S(C)(=O)=O)CC2)C[C@H]1c1ccc(Cl)c(Cl)c1 (racemic) [Example 42]
8. C[C@@H](Oc1ccc(Cl)cn1)[C@@H]1CN(C(=O)N2CCN(CCN(C)C)CC2)C[C@H]1c1ccc(Cl)c(Cl)c1 (racemic) [Example 56]

Result:
1.77
1.69
1.90
1.59
1.77
0.98
1.84
0.41
